TARGET: human GPR40 (Homo sapiens)
MEASUREMENT NOTES: Induction of Ca2+ (calcium flux assay) using human GPR40 expression cell line
COND: read-out: EC0.5
QUANTITY KIND: EC50 (nM)

{"columns": ["CHEM SMILES", "TARGET", "QUANTITY KIND", "RESULT NUMBER"],
 "data": [
  ["CC#C[C@@H](CC(=O)O)c1ccc(OCc2ccc3cnn(CCC)c3c2C)cc1", "human GPR40 (Homo sapiens)", "EC50", 5]
]}

(1) Cn1ncc2ccc(COc3ccc([C@H](CC(=O)O)c4ccon4)cc3)cc21
(2) CC#C[C@@H](CC(=O)O)c1ccc(OCc2ccc3c(cnn3CCCOC)c2)cc1
Compare EC50: is it lower for 1 or for 2 ? Return value: the label identifying the chosen record.
2

* * *

TARGET: human GPR40 (Homo sapiens, UniProt O14842)
Sequence (O14842 whole entry): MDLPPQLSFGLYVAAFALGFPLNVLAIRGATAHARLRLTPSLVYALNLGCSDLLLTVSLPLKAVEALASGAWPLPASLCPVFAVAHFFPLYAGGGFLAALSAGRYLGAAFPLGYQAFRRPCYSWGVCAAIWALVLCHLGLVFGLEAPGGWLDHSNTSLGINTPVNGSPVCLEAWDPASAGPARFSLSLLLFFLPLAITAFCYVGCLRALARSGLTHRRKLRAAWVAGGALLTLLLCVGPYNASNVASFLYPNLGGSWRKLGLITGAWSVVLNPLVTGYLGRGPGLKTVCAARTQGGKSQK
MEASUREMENT NOTES: Induction of Ca2+ (calcium flux assay) using human GPR40 expression cell line
COND: read-out: EC0.5
QUANTITY KIND: EC50 (nM)

(I) CC#C[C@@H](CC(=O)O)c1ccc(OCc2ccc3ccn(Cc4ccc(OC)cc4)c3c2C)cc1
(II) CC#C[C@@H](CC(=O)O)c1ccc(OCc2ccc3c(COC(C)C)nn(CC(C)C)c3c2)cc1
Compare EC50: is it lower for I or for II ? Return value: the label identifying the chosen record.
II

* * *

TARGET: human GPR40 (Homo sapiens, UniProt O14842)
MEASUREMENT NOTES: Induction of Ca2+ (calcium flux assay) using human GPR40 expression cell line
COND: read-out: EC0.5
QUANTITY KIND: EC50 (nM)

(A) CC#C[C@@H](CC(=O)O)c1ccc(OCc2ccc(C)c3c2cnn3CC(C)C)cc1
(B) CC#C[C@@H](CC(=O)O)c1ccc(OCc2ccc3ccn(Cc4ccccc4)c3n2)cc1
Which has the higher EC50, A or B ? Return value: the label identifying the chosen record.
B
(B: 10 nM, A: 5 nM)

(a) O=C(O)CCc1ccc(NCc2ccc3ccn(-c4ccc(F)cc4)c3c2Cl)cc1
(b) CC#C[C@@H](CC(=O)O)c1ccc(OCc2cccc3c2c(F)nn3CCCC)cc1
(c) CC#C[C@@H](CC(=O)O)c1ccc(OCc2ccc3c(Cn4cccn4)nn(C(C)C)c3c2)cc1
(d) CC#C[C@@H](CC(=O)O)c1ccc(OCc2ccc3c(CF)nn(CC(C)C)c3c2C)cc1
Would you mind ranking these compounds by ascending EC50? Use the labels to give the requested order.
d, c, b, a
(d: 5 nM, c: 8 nM, b: 16 nM, a: 300 nM)

(P) CC#C[C@@H](CC(=O)O)c1ccc(OCc2ccc3c(cnn3CC3CCCCC3)c2)cc1
(Q) Cc1cc(F)ccc1-n1ccc2cc(F)c(COc3ccc(CCC(=O)O)cc3)cc21
Compare EC50: is it lower for P or for Q ? Return value: the label identifying the chosen record.
Q
(Q: 4 nM, P: 10 nM)

* * *

TARGET: human GPR40 (Homo sapiens, UniProt O14842)
MEASUREMENT NOTES: Induction of Ca2+ (calcium flux assay) using human GPR40 expression cell line
COND: read-out: EC0.5
Description: Evaluation of the Test Compounds for Induction of Ca^2+ Using Human GPR40 Expression Cell Line The cell line expressing human GPR40 was generated by transfection of the GPR40 expression vector into CHO-K1 cell, and used in the following calcium flux assay. […] After the above pre-treatment, the change in the intracellular calcium concentration when each concentration of the test compound solutions was added at 50 μl was measured by FlexStation II^384. […]
QUANTITY KIND: EC50 (nM)

Guide cases for EC50, answers given:
{"columns": ["COMPOUND", "EC50, nM"],
 "data": [
  ["CC#C[C@@H](CC(=O)O)c1ccc(OCc2cccc3c(CCC)nn(C)c23)cc1 [Example 210]", 8],
  ["CC#C[C@@H](CC(=O)O)c1ccc(OCc2cccc3c2c(Cl)nn3CC(C)C)cc1 [Example 192]", 30],
  ["Cn1cc(Cc2ccccc2)c2cc(COc3ccc(CCC(=O)O)cc3)ccc21 [Example 20]", 70],
  ["O=C(O)CC(C1=NOCC1)c1ccc(OCc2ccc3cnn(Cc4ccccc4)c3c2)cc1 (centres unmarked) [Example 65]", 50],
  ["CC(CC(=O)O)c1ccc(OCc2ccc3cnn(Cc4ccccc4)c3c2)cc1 (centres unmarked) [Example 117]", 50]
]}

(I) O=C(O)CCc1ccc(NCc2ccc3ccn(Cc4ccccc4)c3c2)cc1 [Example 2]
(II) O=C(O)CCc1ccc(NCc2ccc3ccn(CC4CCCCC4)c3c2Cl)cc1 [Example 11]
Which has the higher EC50, I or II ? Return value: the label identifying the chosen record.
II

(a) CC#C[C@@H](CC(=O)O)c1ccc(OCc2ccc3c(CN4CCCC(F)(F)C4)nn(CC(C)C)c3c2C)cc1 [Example 227]
(b) Cc1c(COc2ccc([C@H](CC(=O)O)c3ccon3)cc2)ccc2ccn(Cc3ccc(F)cc3)c12 [Example 84]
Which has the higher EC50, a or b ? Return value: the label identifying the chosen record.
b
(b: 50 nM, a: 5 nM)

(I) CC#C[C@@H](CC(=O)O)c1ccc(OCc2ccc3c(CN4CCCCC4)nn(CC(C)C)c3c2C)cc1 [Example 218]
(II) O=C(O)CC1CCOc2cc(OCc3ccc4c(cnn4CCc4ccccc4)c3)ccc21 (centres unmarked) [Example 135]
(III) CC#C[C@@H](CC(=O)O)c1ccc(OCc2ccc3c(CN4CCOCC4)nn(CC(C)C)c3c2)cc1 [Example 219]
Would you mind ranking these compounds by ascending EC50? Use the labels to give the requested order.
I, III, II
(I: 14 nM, III: 23 nM, II: 200 nM)

(a) CC#C[C@@H](CC(=O)O)c1ccc(OCc2cccc3c(Cl)nn(C)c23)cc1 [Example 201]
(b) CC#C[C@@H](CC(=O)O)c1ccc(OCc2cccc3c2ccn3-c2ccc(F)cc2C)cc1 [Example 32]
Which has the higher EC50, a or b ? Return value: the label identifying the chosen record.
b
